Cited source for all entries: the supplement of paper PMC8728848

target.or.system: Gal(b1-4)GlcNAc(b1-2)Man(a1-3)[GlcNAc(b1-2)Man(a1-6)]Man(b1-4)GlcNAc(b1-4)GlcNAc
experiment.summary: glycan array binding signal (z-score within array); higher = stronger binding
measurement.conditions: glycan notation: IUPAC condensed, linker removed
This is one part of a sample in which the strongest signals are shown more often than they occur.
observed.property: glycan array binding signal (z-score)

[[record]]
binder = "SalT (Orysata sativa) (protein) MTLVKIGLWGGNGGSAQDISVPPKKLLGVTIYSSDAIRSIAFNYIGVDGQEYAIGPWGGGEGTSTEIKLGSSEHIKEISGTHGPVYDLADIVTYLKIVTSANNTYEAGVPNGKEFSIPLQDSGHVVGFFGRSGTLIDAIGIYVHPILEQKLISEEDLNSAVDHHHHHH"
result = 2.65

[[record]]
binder = "ASAL (Allium sativum), P83886 (protein) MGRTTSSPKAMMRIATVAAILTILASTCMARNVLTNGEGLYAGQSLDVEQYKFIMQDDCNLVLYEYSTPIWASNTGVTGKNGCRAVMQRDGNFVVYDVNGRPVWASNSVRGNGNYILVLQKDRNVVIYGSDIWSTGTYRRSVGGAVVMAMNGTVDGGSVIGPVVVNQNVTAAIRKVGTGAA"
result = 5.91


# evaluate next
According to the records, this binder HPL (Tachypleus tridentatus) (protein) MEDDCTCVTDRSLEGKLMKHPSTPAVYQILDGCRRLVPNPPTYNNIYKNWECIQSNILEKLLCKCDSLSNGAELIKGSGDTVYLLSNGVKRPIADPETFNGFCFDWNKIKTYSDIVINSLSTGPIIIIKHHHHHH displays glycan array binding signal (z-score) of -0.178
